Target: Gal-3–8S–Gal-3 (Homo sapiens)
Construct: engineered covalent homodimer: two Gal-3 CRDs joined by the 33-residue Gal-8S linker peptide in one polypeptide, no tail; recombinant from bacteria
Sequence (P17931 114-250 limits assumed): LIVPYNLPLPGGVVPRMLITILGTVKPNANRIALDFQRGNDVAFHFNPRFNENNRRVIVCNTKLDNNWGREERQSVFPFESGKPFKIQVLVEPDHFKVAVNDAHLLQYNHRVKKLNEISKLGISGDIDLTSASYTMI
Assay: isothermal titration calorimetry
Conditions: 25 °C, pH 7.2, 20 mM phosphate, 10 mM NaCl, 2 mM β-mercaptoethanol; one-set-of-sites model; lyophilized protein
From the text: isothermal titration calorimetry on Gal-3–8S–Gal-3
Assay Endpoint: Kd (µM)

I = CC(=O)N[C@H]1C(O)O[C@H](CO)[C@@H](O[C@@H]2O[C@H](CO)[C@H](O)[C@H](O)[C@H]2O)[C@@H]1O (some centres unmarked)
II = CC(=O)N[C@H]1C(O)O[C@H](CO)[C@H](O)[C@@H]1O[C@@H]1O[C@H](CO)[C@H](O)[C@H](O)[C@H]1O (some centres unmarked)
-- ask Which item exceeds the other in Kd, I or II ? # respond with the chosen item's label
-- reply II
(II: 157 µM, I: 29.4 µM)

----------
target: Gal-3–Gal-3 (Homo sapiens); construct: gene LGALS3; engineered covalent homodimer: two Gal-3 CRDs fused directly C- to N-terminus in one polypeptide, no tail; recombinant from bacteria; test: isothermal titration calorimetry; type: binding; settings: 25 °C, pH 7.2, 20 mM phosphate, 10 mM NaCl, 2 mM β-mercaptoethanol; one-set-of-sites model; protein precipitated, dissolved and dialyzed
Sequence (P17931 114-250 limits assumed): as above
Assay Endpoint: pKd
// scale note: pKd = -log10(conc_M); give the bare number

-- ask Would you mind telling me what pKd value was observed for CC(=O)N[C@H]1C(O)O[C@H](CO)[C@H](O)[C@@H]1O[C@@H]1O[C@H](CO)[C@H](O)[C@H](O)[C@H]1O (stereo partly shown) ?
-- reply 3.54
